Where do the numbers come from? From ChEMBL document CHEMBL1157142.

# Test system: Pseudomonas aeruginosa
# assay.info: Antimicrobial activity against Pseudomonas aeruginosa ATCC 27853 assessed as diameter of the inhibition zone after 24 hrs by paper disk agar diffusion method
# Assay type: functional
Listing: inhibition zone (IZ) of selected compounds

In [3]: df
Out[3]:
                            smiles_notation  reported
0  CCCCCCCCO[C@@H]1C[C@@H](O)[C@H](O)[C@@H](CO)O1   <6.4 mm
1  CCCCCCCCO[C@H]1C[C@H](O)[C@@H](O)[C@H](C)O1      8 mm
2  CCCCCCCCCCCCO[C@H]1C[C@@H](O)[C@H](O)[C@@H](CO)O1   <6.4 mm
3  CCCCCCCCCCCCO[C@@H]1C[C@@H](O)[C@H](O)[C@@H](CO)O1   <6.4 mm
4  CCCCCCCCO[C@@H]1C[C@H](O)[C@@H](O)[C@H](C)O1      9 mm
5  CCCCCCCCO[C@H]1C[C@@H](O)[C@H](O)[C@@H](CO)O1   <6.4 mm
6  CCCCCCCCCCCCO[C@H]1C[C@H](O)[C@@H](O)[C@H](C)O1   <6.4 mm

The value of inhibition zone (IZ) recorded for CCCCCCCCCCCCO[C@@H]1C[C@H](O)[C@@H](O)[C@H](C)O1 when tested on Pseudomonas aeruginosa reads <6.4 mm
